assay: cn = amount concentration of the nth substance listed, in mol/dm3; settings: 298 K; 101 kPa; Liquid; Dip Cell; c1 = 7.69e-05
value.kind: electrical conductivity (S/m)

Consider the following illustrative entries.
In [3]: df
Out[3]:
                                   compound  readout_number
0  O=C([O-])c1ccccc1.[Na+] [sodium benzoate] + O        5.86e-05
1  CCCCCCCCCCCCCCCC[N+](C)(C)CCCCCC[N+](C)(C)CCCCCCCCCCCCCCCC.[Br-].[Br-] + O        1.46e-06

[P] Cc1ccc(S(=O)(=O)[O-])cc1.[Na+] [sodium p-toluenesulfonate] + O
[Q] CCCCCCCCCCCCCCCC[N+](C)(C)CCCCC[N+](C)(C)CCCCCCCCCCCCCCCC.[Br-].[Br-] + O
Prompt line: Pick one, P or Q : lowest reported electrical conductivity. # reply format: chosen label
Response line: P

* * *

test: cn = amount concentration of the nth substance listed, in mol/dm3; details: 303 K; 101 kPa; Liquid; Dip Cell; c1 = 7.69e-05
value.kind: electrical conductivity (S/m)

[1] O=C([O-])c1ccccc1.[Na+] [sodium benzoate] + O
[2] CCCCCCCCCCCCCCCC[N+](C)(C)CCCCC[N+](C)(C)CCCCCCCCCCCCCCCC.[Br-].[Br-] + O
Prompt line: Please let me know which one, 1 or 2 , has a lower measured electrical conductivity value. State the label of the item chosen.
Response line: 1

[A] Cc1ccc(S(=O)(=O)[O-])cc1.[Na+] [sodium p-toluenesulfonate] + O
[B] CCCCCCCCCCCCCCCC[N+](C)(C)CCCCCC[N+](C)(C)CCCCCCCCCCCCCCCC.[Br-].[Br-] + O
Prompt line: Which has the higher electrical conductivity, A or B ? Please reply using the label of the selected record.
Response line: A
(A: 6.43e-05 S/m, B: 1.48e-06 S/m)

* * *

test: cn = amount concentration of the nth substance listed, in mol/dm3; conditions: 308 K; 101 kPa; Liquid; Dip Cell; c1 = 7.69e-05
value.kind: electrical conductivity (S/m)

                                   compound  reading_unit  readout_number
0  O=C([O-])c1ccccc1.[Na+] [sodium benzoate] + O           S/m        6.76e-05

[I] Cc1ccc(S(=O)(=O)[O-])cc1.[Na+] [sodium p-toluenesulfonate] + O
[II] CCCCCCCCCCCCCCCC[N+](C)(C)CCCCC[N+](C)(C)CCCCCCCCCCCCCCCC.[Br-].[Br-] + O
[III] CCCCCCCCCCCCCCCC[N+](C)(C)CCCCCC[N+](C)(C)CCCCCCCCCCCCCCCC.[Br-].[Br-] + O
Prompt line: Ordering criterion: electrical conductivity; begin with the maximum. Sort the labels as requested; that list is your answer.
Response line: II, I, III
(II: 0.0015 S/m, I: 7.18e-05 S/m, III: 1.51e-06 S/m)

* * *

experiment: cn = amount concentration of the nth substance listed, in mol/dm3; settings: 313 K; 101 kPa; Liquid; Dip Cell; c1 = 7.69e-05
value.kind: electrical conductivity (S/m)

                                   compound               value_kind  readout_number
0  O=C([O-])c1ccccc1.[Na+] [sodium benzoate] + O  electrical conductivity        7.77e-05

[a] Cc1ccc(S(=O)(=O)[O-])cc1.[Na+] [sodium p-toluenesulfonate] + O
[b] CCCCCCCCCCCCCCCC[N+](C)(C)CCCCC[N+](C)(C)CCCCCCCCCCCCCCCC.[Br-].[Br-] + O
[c] CCCCCCCCCCCCCCCC[N+](C)(C)CCCCCC[N+](C)(C)CCCCCCCCCCCCCCCC.[Br-].[Br-] + O
Prompt line: Put the items in order so that reported electrical conductivity rises from first to last. Reply with the item labels sorted in the order that was asked for.
Response line: c, a, b

Origin of values: the NIST ThermoML archive (doi:10.1021/je100256w)
